- Test system: PPARg:RXRa 30nM:10nM, anti-RXR (NR concentration 30 nM, RXRa partner concentration 10 nM)
- test.protocol: PBM binding z-score (relative to random genomic background probes); higher = stronger binding; sequences stand for … in GC…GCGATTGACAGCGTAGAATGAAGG
Would you kindly list PBM binding z-score for each of these sequences?
// response body must contain only the number

PBM binding z-score measured on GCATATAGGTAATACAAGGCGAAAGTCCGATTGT = 0.39

// field: PBM binding z-score; key: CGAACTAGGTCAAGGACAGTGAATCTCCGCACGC ; value = 3.8

# sequence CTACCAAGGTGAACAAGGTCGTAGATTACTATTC ; its PBM binding z-score = 0.159

Entry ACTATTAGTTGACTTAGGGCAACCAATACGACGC — recorded PBM binding z-score = 0.385

Form: sequence = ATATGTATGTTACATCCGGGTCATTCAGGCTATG ; PBM binding z-score = 0.754

Sample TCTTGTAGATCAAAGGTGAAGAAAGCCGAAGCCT ; PBM binding z-score observed: 7.36
